The reported measurements were obtained from patent US20230357447A1.

# study_system: T1, Anti-CD28 scFv (VH-linker 1-VL) (biotinylated (site not stated))
# T1 construct: biotinylated and captured on neutravidin coated plates in the phage ELISA
# T1 sequence (scFv, as listed by the source): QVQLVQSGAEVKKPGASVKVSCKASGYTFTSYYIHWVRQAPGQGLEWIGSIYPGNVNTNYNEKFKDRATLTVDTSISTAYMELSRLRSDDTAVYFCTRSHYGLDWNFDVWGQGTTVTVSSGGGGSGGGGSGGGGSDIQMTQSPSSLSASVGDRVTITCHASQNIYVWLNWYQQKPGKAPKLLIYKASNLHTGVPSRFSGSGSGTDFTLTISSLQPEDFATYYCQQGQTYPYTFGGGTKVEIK
# protocol_summary: phage binding ELISA on captured anti-CD28 scFv, wells pre-incubated with soluble CD28 (competitor);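 further: crude clonal phage supernatants added without washing, bound phage detected by HRP-conjugated anti-M13 antibody, control wells held blocking buffer alone instead of CD28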
Hi, to clarify the labels: Fulfilled covers CD28 scFv signal in presence of CD28 from 0.2 upward, Not fulfilled covers anything below 0.2.

MDWCPKDMWAECFN [Phage-395]
Fulfilled
IYWCPTAMWNRCSA [Phage-417]
Not fulfilled
MDWCPRYMWSDCFF [Phage-394]
Fulfilled
MDWCPRFLWNECFY [Phage-338]
Fulfilled
LYWCPRDMWAYCYS [Phage-414]
Not fulfilled
ILRCQMNLQDECLN [Phage-385]
Not fulfilled
MDWCPTDLWHECFA [Phage-333]
Not fulfilled
MNWCPRALWHECFL [Phage-375]
Not fulfilled
